Molecular target: human cannabinoid CB2 receptor (Homo sapiens)
Sequence (P34972 whole entry): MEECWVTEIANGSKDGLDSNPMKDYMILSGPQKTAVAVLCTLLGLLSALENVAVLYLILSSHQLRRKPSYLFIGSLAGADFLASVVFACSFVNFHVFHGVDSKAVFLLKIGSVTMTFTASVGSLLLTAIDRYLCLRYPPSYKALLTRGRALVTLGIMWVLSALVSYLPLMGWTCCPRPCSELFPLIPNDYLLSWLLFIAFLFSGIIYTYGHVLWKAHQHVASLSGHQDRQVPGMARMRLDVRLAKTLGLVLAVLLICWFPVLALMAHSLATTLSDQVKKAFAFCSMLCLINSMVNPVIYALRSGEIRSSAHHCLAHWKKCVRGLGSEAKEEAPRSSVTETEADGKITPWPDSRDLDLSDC
Assay: biochemical
Format: binding
Conditions: cloned human CB2 receptor expressed in CHO cells; read-out: Affinity to CB2 (converted)
Description: 3. In Vitro Binding Affinity of the Test Compounds to CB2 Receptors After incubation of a freshly prepared cell membrane preparation with the [^3H]-ligand, with or without the addition of the compounds described herein, separation of bound and free ligand is performed by filtration over glass-fiber filters. Radioactivity on the filter is measured by liquid scintillation counting.
compounds and their reported Ki
measured_quantity: Ki

{"compound": "O=C(NN1CCCCC1)c1cn(-c2ccc(Cl)cc2)c(-c2ccc(Cl)cc2Cl)n1", "measured_quantity": "Ki", "observed_value": "631 nM"}
{"compound": "Cc1c(C(=O)NN2CCCCCC2)nc(-c2ccc(Cl)cc2Cl)n1-c1ccc(Cl)cc1", "measured_quantity": "Ki", "observed_value": "25.1 nM"}
{"compound": "CC(C)(CO)CN/C(=N\\S(=O)(=O)c1ccc(Cl)cc1)N1CC(c2ccccc2)C(c2ccc(Cl)cc2)=N1 (centres unmarked)", "measured_quantity": "Ki", "observed_value": "794 nM"}
{"compound": "O=C(NN1CCCCC1)C1=NN(c2ccc(Cl)cc2Cl)C(c2ccc(Cl)cc2)C1 (centres unmarked)", "measured_quantity": "Ki", "observed_value": "794 nM"}
{"compound": "O=C(NN1CCCCC1)c1nc(-c2ccc(Cl)cc2Cl)n(-c2ccc(Cl)cc2)c1CO", "measured_quantity": "Ki", "observed_value": "631 nM"}

Data provenance: patent US20070254863A1
